assay: Quantitative High-Throughput drug screen in 47 multiple myeloma cell lines against the NCATS MIPE library collection: JIM3_ECACC cell viability assay (AID 1918963; also: nearly all actives have a fitted effect of over 35% in size; also: potency is read from the fitted curve at half-maximal effect); conditions: JIM3 myeloma viability, CellTiter-Glo ATP, 48 h; series mostly up to 45.8 µM
Records with an inconclusive call do not appear. Calls of active or inactive are those of the source. Calls follow the shape of the dose curve; as a rule, active = well fitted cell-killing curve with a large enough effect; inconclusive = small, poorly fitted or top-dose-only effect; inactive = no such curve, though single readings can be large or run the other way. Non-standard residues stand in square brackets, D forms with d. Residues, ends and D or L forms follow the SMILES beside them. *: point of attachment. Nva = CCC[C@H](N)C(=O)O; Cbz = O=C(OCc1ccccc1)*
RESULT_TYPE: Potency

[
  {
    "COMPOUND": "O=C(Nc1cc2cc[nH]c2cn1)c1ccccc1",
    "Potency": "7.43 µM (active)"
  },
  {
    "COMPOUND": "CCC[C@@H](C=O)NC(=O)[C@H](CC(C)C)NC(=O)[C@H](CC(C)C)NC(=O)OCc1ccccc1 (Cbz-Leu-Leu-[Nva]-aldehyde)",
    "Potency": "0.935 µM (active)"
  },
  {
    "COMPOUND": "CC(=O)O[C@H]1C[C@@H]2CC[C@H]3[C@H]4C[C@H]([N+]5(C)CCCCC5)[C@@H](OC(C)=O)[C@@]4(C)CC[C@@H]3[C@@]2(C)C[C@H]1[N+]1(C)CCCCC1",
    "Potency": "inactive"
  },
  {
    "COMPOUND": "O=C(NNC(=O)c1ccc(CNS(=O)(=O)c2ccc(F)c(Cl)c2)cc1)c1ccccc1",
    "Potency": "inactive"
  },
  {
    "COMPOUND": "CC(C)N1[N]C(=C2C=c3cc(O)ccc3=N2)c2c(N)ncnc21",
    "Potency": "0.264 µM (active)"
  }
]

Can you give me Potency for all of these, one by one?
1. NC(=O)c1ncn([C@@H]2O[C@H](CO)[C@@H](O)[C@@H]2O)c1O
2. Cn1cc(C2=C(c3c4n(c5ccccc35)CCC(CN)C4)C(=O)NC2=O)c2ccccc21 (configuration not stated)
3. CC(C)NC[C@@H](C(=O)N1CCN(c2ncnc3c2[C@H](C)C[C@H]3O)CC1)c1ccc(Cl)cc1
4. CC[C@H](CC[C@@H](C)[C@H]1CC[C@H]2[C@@H]3CC=C4C[C@@H](O)CC[C@]4(C)[C@@H]3CC[C@]12C)C(C)C
5. COc1cc([C@@H]2c3cc4c(cc3[C@@H](O[C@@H]3O[C@@H]5CO[C@@H](c6cccs6)O[C@@H]5[C@H](O)[C@@H]3O)[C@H]3COC(=O)[C@H]23)OCO4)cc(OC)c1O
6. N#CC(=Cc1ccc(O)c(O)c1)C(=O)NCc1ccccc1
7. Cc1onc(-c2ccccc2)c1C(=O)N[C@@H]1C(=O)N2[C@@H](C(=O)O)C(C)(C)S[C@@H]12

1: inactive; 2: 10.5 µM (active); 3: 1.66 µM (active); 4: inactive; 5: 0.833 µM (active); 6: 8.33 µM (active); 7: inactive

Hi, could you look up Potency for each item in my list?
1. CCCCCCCCc1ccc(CCC(N)(CO)CO)cc1
2. CCCc1nc(C(C)(C)O)c(C(=O)O)n1Cc1ccc(-c2ccccc2-c2nn[nH]n2)cc1
3. CCOc1cc2c(c(F)c1OCC)C(=N)N(CC(=O)c1cc(N3CCOCC3)c(OC)c(C(C)(C)C)c1)C2
4. C=CC(=O)N1CCc2ccc(-n3c(=O)ccc4cnc5ccc(-c6cnn(C)c6)cc5c43)cc21
5. CCCCOc1ccc(C(=O)Nc2ccc(F)cc2F)cc1

1. 13.2 µM (active)
2. inactive
3. 9.35 µM (active)
4. 2.96 µM (active)
5. inactive

The measurements presented in this section are drawn from PubChem BioAssay (NCATS).
